B1: LINE1-full (parent)
chain: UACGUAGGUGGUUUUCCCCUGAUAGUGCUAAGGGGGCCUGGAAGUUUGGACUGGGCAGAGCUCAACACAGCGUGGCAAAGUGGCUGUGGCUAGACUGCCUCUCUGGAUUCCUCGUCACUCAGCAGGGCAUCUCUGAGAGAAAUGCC

- Variants of: B1
- ASSAY REMARKS: self-cleavage, relative activity (ratio to wild type); higher = more cleavage; in vitro, sequencing; the parent is a self-cleaving ribozyme
Assign class by self-cleavage: not lower than 0.2 means true (1); lower than 0.2 means false (0).

- U73G A136U: true (1)
- U5C C19A: true (1)
- G74A U130G: true (1)
- A42C G97C: false (0)
- A65U U119C: false (0)
- U14C A57C: true (1)
- G4A C98A: false (0)
- U13A A138G: true (1)
- A78G G89C: false (0)
- C18U C71A: false (0)
- A22G A78C: true (1)
